Tested on: HEL cells
Assay: Cytotoxicity: alteration of cell morphology (MCC)
Type: cell-based, human
Conditions: minimum cytotoxic concentration that causes a microscopically detectable alteration of cell morphology
Entries and their measured Cytotoxicity Cell morphology (MCC) follow.
Reply numerically in μg/ml, unit not repeated.

INSERT INTO results (compound, measuredparameter, endpointresult) VALUES
  ('CO[C@@H]1[C@@H](OC)[C@H](Sc2ccccc2)O[C@@H]2CO[C@@H](c3ccccc3)O[C@@H]12 [KPE00001045]', 'Cytotoxicity Cell morphology (MCC)', 20),
  ('CO[C@@H]1[C@@H](OC)[C@H](c2ccccc2)O[C@@H]2CO[C@@H](c3ccccc3)O[C@@H]12 [KPE00001015]', 'Cytotoxicity Cell morphology (MCC)', 50),
  ('CO[C@@H]1[C@@H](OC)[C@H](Cc2ccccc2)O[C@@H]2CO[C@@H](c3ccccc3)O[C@@H]12 [KPE00001019]', 'Cytotoxicity Cell morphology (MCC)', 20);

Let us move to another entry and its Cytotoxicity Cell morphology (MCC).
Exercise: // returns reported Cytotoxicity Cell morphology (MCC) for input c1ccc(CO[C@@H]2[C@@H](OCc3ccccc3)[C@H](Sc3ccccc3)O[C@@H]3CO[C@@H](c4ccccc4)O[C@@H]23)cc1 [KPE00001044]
Key: 5

###

Entries and their measured CC50 at 3 days follow.
Assay: Cytotoxicity: inhibition of HEL cell growth (CC50)
Format: cell-based
Conditions: human; concentration required to reduce cell growth by 50%; HEL cells, three days
Description: The medium was then replaced by MEM containing various concentrations of the test compound. After three days incubation at 37° C., when the cell monolayer was 70% confluent, the cell number was determined with the Coulter counter. The minimum cytotoxic concentration was defined as the concentration required to reduce cell growth by 50%.

See these solved cases before continuing.
INSERT INTO measurements (smilesrepr, measuredparameter, endpointresult) VALUES
  ('CCO[C@@H]1[C@@H](OCC)[C@H](Sc2ccccc2)O[C@@H]2CO[C@@H](c3ccccc3)O[C@@H]12', 'CC50 at 3 days', '> 50 µg/mL'),
  ('CO[C@@H]1[C@@H](OC)[C@H](c2ccccc2)O[C@@H]2CO[C@@H](c3ccccc3)O[C@@H]12', 'CC50 at 3 days', '> 50 µg/mL'),
  ('O[C@@H]1[C@@H](O)[C@H](Sc2ccccc2)O[C@@H]2CO[C@@H](c3ccccc3)O[C@@H]12', 'CC50 at 3 days', '> 50 µg/mL'),
  ('CO[C@@H]1[C@@H](OC)[C@H](Sc2ccccc2)O[C@@H]2CO[C@@H](c3ccccc3)O[C@@H]12', 'CC50 at 3 days', '50 µg/mL'),
  ('CO[C@@H]1[C@@H](OC)[C@H](Cc2ccccc2)O[C@@H]2CO[C@@H](c3ccccc3)O[C@@H]12', 'CC50 at 3 days', '> 50 µg/mL');

Exercise: // returns reported CC50 at 3 days for input `c1ccc(CO[C@@H]2[C@@H](OCc3ccccc3)[C@H](Sc3ccccc3)O[C@@H]3CO[C@@H](c4ccccc4)O[C@@H]23)cc1`
Key: > 50 µg/mL

###

Entries and their measured activity at 25 ppm follow.
Tested on: E. faecalis ATTC29212 LMG 8222
Assay: Anti-bacterial activity, Bioscreen C growth curve: E. faecalis
Type: cell-based
Conditions: Enterococcus faecalis, LMG8222, 35° C., 16 hours, negative control = 100, read-out: % of growth at 25 PPM compared to the negative control, E. faecalis ATTC29212 LMG 8222
Reply numerically in %, unit not repeated.

See these solved cases before continuing.
INSERT INTO assay_data (compound, measuredparameter, endpointresult) VALUES
  ('CO[C@@H]1[C@@H](OC)[C@H](Sc2ccccc2)O[C@@H]2CNC(=O)CC/C=C/CCCO[C@@H]12 [KPE00001042]', 'activity at 25 ppm', 93.3),
  ('CO[C@@H]1[C@@H](OC)[C@H](c2ccccc2)O[C@@H]2COC(=O)CCC=CCCC(=O)O[C@@H]12 [KPE00001040]', 'activity at 25 ppm', 85.1),
  ('CO[C@@H]1[C@@H](OC)[C@H](Sc2ccccc2)O[C@@H]2COCCC/C=C/CCCO[C@@H]12 [KPE00001009.1]', 'activity at 25 ppm', 87.5);

Let us move to another entry and its activity at 25 ppm.
Exercise: Could you share what activity at 25 ppm was measured for CO[C@H]1[C@@H]2OC(=O)CCCCCCC(=O)OC[C@H]2OC[C@@H]1OC [KPE00001010] , tested on E. faecalis ATTC29212 LMG 8222?
Key: 90.6

###

Test system: S. typhimurium ATTC700408
Assay: Anti-bacterial activity, Bioscreen C growth curve: S. typhimurium
Format: cell-based
Details: Salmonella enterica, LMG16217 / TYPHIMURIUM, 35° C., 16 hours, negative control = 100, read-out: % of growth at 25 PPM compared to the negative control, S. typhimurium ATTC700408 LMG16217
measuredParameter: activity at 25 ppm (%)
Reply numerically in %, unit not repeated.

See these solved cases before continuing.
INSERT INTO results (compound, assaytarget, measuredparameter, endpointresult) VALUES
  ('CO[C@@H]1[C@@H](OC)[C@H](Sc2ccccc2)O[C@@H]2COC(=O)CC/C=C/CCC(=O)O[C@@H]12', 'S. typhimurium ATTC700408', 'activity at 25 ppm', 93.7),
  ('CO[C@@H]1[C@@H](OC)[C@H](Sc2ccccc2)O[C@@H]2COC(=O)CCCC/C=C/CCCCC(=O)O[C@@H]12', 'S. typhimurium ATTC700408', 'activity at 25 ppm', 76.4),
  ('CO[C@H]1[C@@H]2OC(=O)CC/C=C/CCC(=O)OC[C@H]2OC[C@@H]1OC', 'S. typhimurium ATTC700408', 'activity at 25 ppm', 94.6);

Let us move to another entry and its activity at 25 ppm.
Exercise: Could you share what activity at 25 ppm was measured for `CO[C@@H]1[C@@H](OC)[C@H](Cc2ccccc2)O[C@@H]2COC(=O)CC/C=C/CCC(=O)O[C@@H]12` , tested on S. typhimurium ATTC700408?
Key: 94

###

Tested on: P. aeruginosa ATCC27853 LMG16217
Assay: Anti-bacterial activity, Bioscreen C growth curve: P. aeruginosa
Assay type: cell-based, Pseudomonas aeruginosa
Details: Pseudomonas aeruginosa; 25 PPM; 35° C., 16 hours; negative control = 100; read-out: % of growth at 25 PPM compared to the negative control, P. aeruginosa ATCC27853 LMG16217
Labelling field: enter TRUE if recorded activity at 25 ppm is less than 90%. Enter FALSE if it equals or exceeds that cut-off.

Use these answered entries as a reference point.
INSERT INTO assay_data (molecule, classassignment) VALUES
  ('CO[C@H]1[C@@H]2OC(=O)CC/C=C/CCC(=O)OC[C@H]2OC[C@@H]1OC', 'TRUE'),
  ('CO[C@H]1[C@H](OC)[C@H](OC)COC/C=C/COC[C@H]2OC[C@H](OC)[C@@H](OC)[C@@H]2OC(=O)NC[C@@H]1OC', 'FALSE');

Exercise: Just wondering, is activity at 25 ppm of CO[C@@H]1[C@@H](OC)[C@H](Sc2ccccc2)O[C@@H]2COC(=O)CCC(O)C(O)CCC(=O)O[C@@H]12 (stereo partly shown) below 90%?
Key: TRUE

###

Entries and their measured IC50 follow.
Tested on: human T-lymphocyte cells (CEM/0)
Assay: Cytostatic activity: inhibition of proliferation of CEM/0 cells
Type: cell-based
Conditions: CCRF-CEM, 50% inhibitory concentration, cell proliferation, read-out: IC50 CEM/0

See these solved cases before continuing.
INSERT INTO measurements (compound, assaytarget, endpointresult) VALUES
  ('CO[C@@H]1[C@@H](OC)[C@H](Cc2ccccc2)O[C@@H]2COC(=O)CCCCCCCCC=CCCCCCCCCC(=O)O[C@@H]12 [KPE00001031E]', 'human T-lymphocyte cells (CEM/0)', '≥ 200 µg/mL'),
  ('O[C@@H]1[C@@H](O)[C@H](Sc2ccccc2)O[C@@H]2CO[C@@H](c3ccccc3)O[C@@H]12 [KPE00001048]', 'human T-lymphocyte cells (CEM/0)', '75 µg/mL'),
  ('CO[C@@H]1[C@@H](OC)[C@H](Sc2ccccc2)O[C@@H]2COC(=O)CC/C=C/CCC(=O)O[C@@H]12 [KPE00001002]', 'human T-lymphocyte cells (CEM/0)', '> 200 µg/mL'),
  ('CCO[C@@H]1[C@@H](OCC)[C@H](Sc2ccccc2)O[C@@H]2CO[C@@H](c3ccccc3)O[C@@H]12 [KPE00001050]', 'human T-lymphocyte cells (CEM/0)', '> 200 µg/mL'),
  ('CO[C@@H]1[C@@H](OC)[C@H](Cc2ccccc2)O[C@@H]2CO[C@@H](c3ccccc3)O[C@@H]12 [KPE00001019]', 'human T-lymphocyte cells (CEM/0)', '≥ 200 µg/mL'),
  ('CO[C@@H]1[C@@H](OC)[C@H](Sc2ccccc2)O[C@@H]2COCC=CCO[C@@H]12 [KPE00001014]', 'human T-lymphocyte cells (CEM/0)', '> 200 µg/mL');

Let us move to another entry and its IC50.
Exercise: // returns reported IC50 for input CO[C@@H]1[C@@H](OC)[C@H](c2ccccc2)O[C@@H]2COC(=O)CC/C=C/CCC(=O)O[C@@H]12 [KPE00001018]
Key: 132 µg/mL
